# MRT inf listing for each entry below
assay: Pharmacokinetic study of 14 compounds in rat plasma after oral administration of XYP (UPLC-MS/MS); type: in vivo, Sprague–Dawley rats; details: female, Sprague-Dawley, oral XYP 4 g/kg, mean ± SD, n = 6, read-out: MRT0–∞
readout.name: MRT inf (h)

{"compound": "O=C(/C=C/c1ccc(O)cc1)c1ccc(O)cc1O [Isoliquiritigenin, isoliquiritigenin]", "numeric.readout": 7.81}
{"compound": "COc1cc(/C=C/C(=O)O)ccc1O [Ferulic acid, ferulic acid]", "numeric.readout": 4.66}
{"compound": "O=C1C[C@@H](c2ccc(O)cc2)Oc2cc(O)ccc21 [Liquiritigenin, liquiritigenin]", "numeric.readout": 11.5}
{"compound": "CCC/C=C1\\OC(=O)C2=C1CCC=C2 [Ligustilide, ligustilide]", "numeric.readout": 7.47}

###

Form field: Cmax (one value per entry).
test: Pharmacokinetic study of 14 compounds in rat plasma after oral administration of XYP (UPLC-MS/MS); type: in vivo, Sprague–Dawley rats; details: female, Sprague-Dawley, oral XYP 4 g/kg, mean ± SD, n = 6

{"compound": "C=C1CCC[C@]2(C)C[C@]3(O)OC(=O)C(C)=C3C[C@@H]12 [Atractylenolide III, atractylenolide III]", "Cmax, ng/mL": 230}
{"compound": "O=c1c(O)c(-c2ccc(O)c(O)c2)oc2cc(O)cc(O)c12 [Quercetin, quercetin]", "Cmax, ng/mL": 491}
{"compound": "CC12CC(O)C3CC1(OC1OC(CO)C(O)C(O)C1O)C3(COC(=O)c1ccccc1)C(=O)O2 (stereo not shown) [Albiflorin, albiflorin]", "Cmax, ng/mL": 58.3}
{"compound": "C=C1CCC[C@]2(C)C[C@@H]3OC(=O)C(C)=C3C[C@@H]12 [Atractylenolide II, atractylenolide II]", "Cmax, ng/mL": 22.5}

###

Test: Pharmacokinetic study of 14 compounds in rat plasma after oral administration of XYP (UPLC-MS/MS)
Assay type: in vivo, Sprague–Dawley rats
Conditions: female, Sprague-Dawley, oral XYP 4 g/kg, mean ± SD, n = 6
Description: The validated UPLC-MS/MS method was successfully applied to the pharmacokinetic study of 14 compounds in rat plasma after the oral administration of XYP at a dose of 4 g/kg (8-fold the clinical dosage). Quantitative analysis was conducted on a Waters® Micromass® Quattro Premier™ XE triple-quadrupole tandem mass spectrometer (Waters Corp., Milford, MA, USA). […]
readout.name: half-life (h)

{"molecule": "COc1cc(/C=C/C(=O)O)ccc1O", "readout.name": "half-life", "endpoint.unit": "h", "numeric.readout": 5.3}
{"molecule": "CCC/C=C1\\OC(=O)C2=C1CCC=C2 [Ligustilide, ligustilide]", "readout.name": "half-life", "endpoint.unit": "h", "numeric.readout": 5.44}
{"molecule": "CC12CC(O)C3CC1(OC1OC(CO)C(O)C(O)C1O)C3(COC(=O)c1ccccc1)C(=O)O2 (stereo not shown)", "readout.name": "half-life", "endpoint.unit": "h", "numeric.readout": 7.11}
{"molecule": "O=c1c(O)c(-c2ccc(O)c(O)c2)oc2cc(O)cc(O)c12", "readout.name": "half-life", "endpoint.unit": "h", "numeric.readout": 4.09}
{"molecule": "C=C1CCC[C@]2(C)C[C@@H]3OC(=O)C(C)=C3C[C@@H]12 [Atractylenolide II, atractylenolide II]", "readout.name": "half-life", "endpoint.unit": "h", "numeric.readout": 3.54}
{"molecule": "C[C@@]12C[C@@]3(O)O[C@@H](O1)[C@]1(COC(=O)c4ccccc4)[C@H]3C[C@@]12O[C@@H]1O[C@H](CO)[C@@H](O)[C@H](O)[C@H]1O", "readout.name": "half-life", "endpoint.unit": "h", "numeric.readout": 4.82}
{"molecule": "CC1(C)[C@@H](O[C@H]2O[C@H](C(=O)O)[C@@H](O)[C@H](O)[C@H]2O[C@@H]2O[C@H](C(=O)O)[C@@H](O)[C@H](O)[C@H]2O)CC[C@]2(C)[C@H]3C(=O)C=C4[C@@H]5C[C@@](C)(C(=O)O)CC[C@]5(C)CC[C@@]4(C)[C@]3(C)CC[C@@H]12", "readout.name": "half-life", "endpoint.unit": "h", "numeric.readout": 7.63}

These entries and their values trace back to paper PMC6222316.
